assay-summary: Serum stability in human serum
Format: in vitro ADME
test-context: human serum (1:1 v/v with HEPES buffer), pH 7.8, 37 °C, read-out: Serum half-life time (converted)
Peptide text beside a SMILES is read from it. * marks the point of attachment. X1 = C=CC1=C(C)c2cc3[nH]c(cc4nc(cc5[nH]c(cc1n2)c(C)c5CCC(=O)*)C(CCC(=O)O)=C4C)c(C)c3C=C; X2 = CCC1=C(C)c2cc3[nH]c(cc4nc(cc5[nH]c(cc1n2)c(C)c5CCC(=O)O)C(CCC(=O)*)=C4C)c(C)c3CC
test-readout: half-life at 0.05 mM (h)
Kindly answer with a numeric value in h, unit omitted.

Example entries and their recorded answers appear below.
compound | measurement-units | half-life at 0.05 mM
C=CC1=C(C)c2cc3[nH]c(cc4nc(cc5[nH]c(cc1n2)c(C)c5CCC(=O)NCCCC[C@H](NC(=O)[C@H](CC(C)C)NC(=O)[C@H](CO)NC(=O)[C@H](Cc1ccccc1)NC(=O)[C@H](CCCNC(=N)N)NC(=O)[C@H](CCCCN)NC(=O)[C@@H](NC(=O)[C@H](CC(C)C)NC(=O)[C@H](CCC(N)=O)NC(=O)[C@H](CCC(N)=O)NC(=O)[C@@H](N)C(C)C)[C@@H](C)O)C(N)=O)C(CCC(=O)O)=C4C)c(C)c3C=C [Compound P2-PP] (H-VQQLTKRFSLK(X1)-NH2) | h | 3.6
C=CC1=C(C)c2cc3[nH]c(cc4nc(cc5[nH]c(cc1n2)c(C)c5CCC(=O)N[C@H](C(=O)N[C@@H](CCC(N)=O)C(=O)N[C@@H](CCC(N)=O)C(=O)N[C@@H](CC(C)C)C(=O)N[C@H](C(=O)N[C@@H](CCCCN)C(=O)N[C@@H](CCCNC(=N)N)C(=O)N[C@@H](Cc1ccccc1)C(=O)N[C@@H](CO)C(=O)N[C@@H](CC(C)C)C(N)=O)[C@@H](C)O)C(C)C)C(CCC(=O)O)=C4C)c(C)c3C=C [(I)] (X1-VQQLTKRFSL-NH2) | h | 22.2

// below: half-life at 0.05 mM requested for another compound
Query string: Provide half-life at 0.05 mM value for the following compound: CCC1=C(C)c2cc3[nH]c(cc4nc(cc5[nH]c(cc1n2)c(C)c5CCC(=O)O)C(CCC(=O)NCCCC[C@H](NC(=O)[C@H](Cc1ccc(O)cc1)NC(=O)[C@H](CCC(=O)O)NC(=O)[C@H](CCC(=O)O)NC(=O)[C@H](CCC(N)=O)NC(=O)[C@@H](NC(=O)CNC(=O)[C@@H](N)CO)[C@@H](C)O)C(N)=O)=C4C)c(C)c3CC [Compound P4-MP] (H-SGTQEEYK(X2)-NH2)
Result string: 3

---

Tested on: ZIKV^BR
assay-summary: ZIKV inactivation assay (plaque assay on Vero cells)
Type: cell-based, Zika virus
test-context: Zika virus, Vero; virus pre-treated 1 h at 37 °C, in the dark, 0.01-50 µM
test-readout: IC50

Query string: Provide IC50 value for the following compound: `C=CC1=C(C)c2cc3[nH]c(cc4nc(cc5[nH]c(cc1n2)c(C)c5CCC(=O)O)C(CCC(=O)O)=C4C)c(C)c3C=C`
Result string: > 50 µM

---

assay-summary: Serum stability in human serum
Assay type: in vitro ADME
test-context: human serum (1:1 v/v with HEPES buffer), pH 7.8, 37 °C, read-out: Serum half-life time (converted)
Peptide text beside a SMILES is read from it. * marks the point of attachment. X3 = C=CC1=C(C)c2cc3[nH]c(cc4nc(cc5[nH]c(cc1n2)c(C)c5CCC(=O)O)C(CCC(=O)*)=C4C)c(C)c3C=C; X2 = CCC1=C(C)c2cc3[nH]c(cc4nc(cc5[nH]c(cc1n2)c(C)c5CCC(=O)O)C(CCC(=O)*)=C4C)c(C)c3CC; X4 = CCC1=C(C)c2cc3[nH]c(cc4nc(cc5[nH]c(cc1n2)c(C)c5CCC(=O)*)C(CCC(=O)O)=C4C)c(C)c3CC
Item-by-item account of half-life at 0.05 mM
Kindly answer with a numeric value in min, unit omitted.

Example entries and their recorded answers appear below.
compound | measurement-units | readout-number
CCC1=C(C)c2cc3[nH]c(cc4nc(cc5[nH]c(cc1n2)c(C)c5CCC(=O)N[C@@H](CO)C(=O)NCC(=O)N[C@H](C(=O)N[C@@H](CCC(N)=O)C(=O)N[C@@H](CCC(=O)O)C(=O)N[C@@H](CCC(=O)O)C(=O)N[C@@H](Cc1ccc(O)cc1)C(N)=O)[C@@H](C)O)C(CCC(=O)O)=C4C)c(C)c3CC [MP-P3] (X4-SGTQEEY-NH2) | min | 1270
CCC1=C(C)c2cc3[nH]c(cc4nc(cc5[nH]c(cc1n2)c(C)c5CCC(=O)N[C@H](C(=O)N[C@@H](CCC(N)=O)C(=O)N[C@@H](CCC(N)=O)C(=O)N[C@@H](CC(C)C)C(=O)N[C@H](C(=O)N[C@@H](CCCCN)C(=O)N[C@@H](CCCNC(=N)N)C(=O)N[C@@H](Cc1ccccc1)C(=O)N[C@@H](CO)C(=O)N[C@@H](CC(C)C)C(N)=O)[C@@H](C)O)C(C)C)C(CCC(=O)O)=C4C)c(C)c3CC [MP-P1] (X4-VQQLTKRFSL-NH2) | min | 972

Query string: Provide half-life at 0.05 mM value for the following compound: C=CC1=C(C)c2cc3[nH]c(cc4nc(cc5[nH]c(cc1n2)c(C)c5CCC(=O)O)C(CCC(=O)NCCCC[C@H](NC(=O)[C@H](Cc1ccc(O)cc1)NC(=O)[C@H](CCC(=O)O)NC(=O)[C@H](CCC(=O)O)NC(=O)[C@H](CCC(N)=O)NC(=O)[C@@H](NC(=O)CNC(=O)[C@@H](N)CO)[C@@H](C)O)C(N)=O)=C4C)c(C)c3C=C [Compound P4-PP] (H-SGTQEEYK(X3)-NH2)
Result string: 198

Query string: Provide half-life at 0.05 mM value for the following compound: CCC1=C(C)c2cc3[nH]c(cc4nc(cc5[nH]c(cc1n2)c(C)c5CCC(=O)O)C(CCC(=O)NCCCC[C@H](NC(=O)[C@H](CC(C)C)NC(=O)[C@H](CO)NC(=O)[C@H](Cc1ccccc1)NC(=O)[C@H](CCCNC(=N)N)NC(=O)[C@H](CCCCN)NC(=O)[C@@H](NC(=O)[C@H](CC(C)C)NC(=O)[C@H](CCC(N)=O)NC(=O)[C@H](CCC(N)=O)NC(=O)[C@@H](N)C(C)C)[C@@H](C)O)C(N)=O)=C4C)c(C)c3CC [Compound P2-MP] (H-VQQLTKRFSLK(X2)-NH2)
Result string: 642
